B1: PLAGL1 (parent)
chain: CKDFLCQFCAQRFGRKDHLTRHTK

- Variants of: B1
- assay-summary: protein stability index of a GFP-peptide fusion (GPS, HEK-293T) (PSI 1-6); higher = more stable;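 also: lentivirally expressed fusions sorted by FACS into six bins by GFP to DsRed ratio, PSI derived from sequencing read proportions per bin multiplied by bin number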
- condition-details: c terminus: a fixed tail appended
measurement-label: protein stability index
API note: the answer field is a bare number with no unit suffix.

Recorded results for 2 variants are shown here.
C9M; 1.79
T23D; 2.81

Requested field: protein stability index. Item: `F4K`
2.41

Requested field: protein stability index. Item: `K16V`
2.05

Requested field: protein stability index. Item: `D17A`
2.28

Requested field: protein stability index. Item: `D3V`
2.38

Requested field: protein stability index. Item: `F13V`
2.03
